system: SNB-78 CNS; assay: NCI tumour cell line growth inhibition, 48 h
Property: TGI

The compound `CCOC(=O)NN1C(=O)C(=P(c2ccccc2)(c2ccccc2)c2ccccc2)C(C(=O)OCC)=C1C` showed TGI equal to > 100 µM

What the record says about `N#C/C(=C\c1cccc(O)c1)C(N)=O` : TGI is > 100 µM

Quick note, TGI for CC1C(=O)C(C)C(c2ccccc2)N(N=O)C1c1ccccc1 (centres undefined) landed at > 766 µM

For `CCOC(=O)/C=C(\C)c1ccc(OC)cc1` the compound record lists TGI as > 100 µM

---

tested on: MOLT-4 leukemia; test: NCI tumour cell line growth inhibition, 48 h; in the data active = GI50 below about 0.43 µM; inactive = the rest
Classes to choose from: true (1) (active), false (0) (inactive)

Give the logged outcome of this assay for the following compound: `O=C1C(Cl)=C(Nc2cccc(O)c2)C(=O)N1c1cc(Cl)c(Cl)cc1Cl`
false (0)

Per the assay record, what outcome was assigned to `C[C@@H]1CN(CC(=O)N2CC(C)(C)c3nc(CO)c(Cc4ccc(F)cc4)cc32)[C@@H](CN2CCOC[C@H]2C)CN1` ?
false (0)

Dear colleague, could you share the recorded outcome for `Cc1nc2sc(C(=O)Nc3ccccc3)c(N)c2cc1C(=O)/C=C/c1ccccc1` when you have a moment?
false (0)

Look up the recorded call for COc1c(N2CCN(CN3C(=O)C(=Nc4ccc(S(=O)(=O)Nc5ncccn5)cc4)c4ccccc43)C(C)C2)c(F)cc2c(=O)c(C(=O)O)cn(C3CC3)c12 (stereo not drawn) in this test.
false (0)

State the result this test recorded for `c1cnc2[nH]cc(-c3csc(-c4cn(CCCCN5CCOCC5)c5ccccc45)n3)c2c1` .
false (0)

Hi, do you know how COc1ccc2c(c1)OC(N(C(C)=O)C(C)=O)=C(C#N)C2c1ccc(F)cc1 (stereo not drawn) came out in this test?
false (0)

How was `NC(C(=O)[O-])C(=O)[O-].NC1CCCCC1N.[Pt+4]` classified in this test?
false (0)

Which outcome was entered for the compound `COc1ccc(-c2cn(-c3ccccc3)c(-c3ccccc3)n2)cc1OC` in this test?
false (0)

Could you kindly confirm the outcome this assay logged for `Fc1ccc2[nH]c3c(NCCCN4CCOCC4)ncnc3c2c1` ?
false (0)

Short answer needed: outcome of this test for `O=C1/C(=C/c2ccc(O)cc2)COc2ccc(-c3ccccc3)cc21` ?
false (0)

Per the records of this test, what outcome belongs to C=C1CC[C@@H]2[C@](C)(COC(C)=O)[C@H](OC(C)=O)CC[C@@]2(C)[C@@H]1CC(Nc1ccc(S(=O)(=O)Nc2nccc(C)n2)cc1)C1=CCOC1=O (stereo partly drawn) ?
false (0)

I would be grateful if you could indicate the recorded call for CC1OC2CC(=O)OC2C2=C1C(=O)c1c(O)c3c(c(O)c1C2=O)C1CC(O)C3(O)C(C)O1 (stereo not drawn) .
true (1)

Tell me the recorded outcome of this test for `Fc1cccc(COc2ccc(Nc3ncnc4cc(-c5ccc[nH]5)sc34)cc2Cl)c1` .
false (0)

---

Exercise: state measured TGI for each of the molecules provided.
test system: SK-MEL-28 melanoma; assay: NCI tumour cell line growth inhibition, 48 h

The value of TGI recorded for `Nc1cc(N)c(N)cc1N` when tested on SK-MEL-28 melanoma reads 3.88 µM

Form: item C=C1CC[C@@H]2[C@](C)(COC(C)=O)[C@H](OC(C)=O)CC[C@@]2(C)[C@@H]1CC(Nc1ccc(S(=O)(=O)Nc2nccc(C)n2)cc1)C1=CCOC1=O (some centres not stated) ; test system SK-MEL-28 melanoma; TGI: 10.1 µM

Reading of TGI for `COc1ccc2c(c1)c1c(n2CCN2CCCCC2)-c2ccccc2CC1` with SK-MEL-28 melanoma: 38.5 µM

Assay SK-MEL-28 melanoma, sample `Cc1cccc2c1NC(=S)[C@@H]1CCCN1C2=O` , TGI read: > 100 µM

// returns TGI for `Fc1cccc(COc2ccc(Nc3ncnc4cc(-c5ccc[nH]5)sc34)cc2Cl)c1` with SK-MEL-28 melanoma; value = > 25 µM

Observed TGI, SK-MEL-28 melanoma, `COC(=O)/C=c1/c2ccccc2n2nc3ccccc3c12` : > 100 µM

The molecule `Brc1ccccc1-c1ncc(-c2ccccc2)o1` on SK-MEL-28 melanoma: TGI was > 100 µM

Tested on SK-MEL-28 melanoma, the item `COc1cc(CNc2ccc(C(C)C)cc2)cc(OC)c1OC` showed TGI equal to 72.7 µM

// TGI (SK-MEL-28 melanoma) for `CCCCCCCCCCCCCC(=O)CBr` = 30.7 µM

The recorded TGI with SK-MEL-28 melanoma for CC12CCC(=O)C=C1CCC1C2C(O)CC2(C)C(c3csc(N)n3)CCC12 (configuration not stated) was > 100 µM

TGI for SK-MEL-28 melanoma with input `COc1cc(/C=C/C(=O)c2sc(Nc3ccccc3)nc2C)ccc1O` equals > 100 µM

Assay SK-MEL-28 melanoma, sample `COC(=O)c1csc(-c2nc(CCNC(=O)OC(C)(C)C)sc2Br)n1` , TGI read: > 100 µM

Reading of TGI for `CCOc1ccc(NCc2cc(OC)c(OC)c(OC)c2)cc1` with SK-MEL-28 melanoma: > 100 µM

Record `CO/N=C(\C)c1ccc(Nc2cc(-c3ccccc3)nc3c(O)cccc23)cc1` / SK-MEL-28 melanoma, TGI recorded as 84.8 µM

// assay SK-MEL-28 melanoma, entry COc1ccc(C2S/C(=C\c3ccc(O)cc3)C(=O)N2NC(=O)Cc2ccccc2)cc1 (configuration not stated) , TGI value = > 100 µM

Item `Clc1nc(Cl)c2c(ncn2C/C=C\Cn2cnc3c(Cl)nc(Cl)nc32)n1` ; assay system SK-MEL-28 melanoma; TGI reported as 3.02 µM

The observed TGI for `CCOc1cc(NC(C)=O)ccc1C(=O)NN1C(=O)/C(=C/c2cc(OC)c(OC)c(OC)c2)N=C1c1ccccc1` when tested with SK-MEL-28 melanoma stands at > 100 µM

Tested system SK-MEL-28 melanoma; TGI recorded for `O[C@@H]1C[C@@H]2N[C@@](O)(C[C@@H]2O)[C@H]1O` was > 100 µM

The measured TGI that CC[C@H]1OC([C@H](O)C/C=C\C#C[Si](C)(C)C)C/C=C\C[C@H]1O[Si](C)(C)C(C)(C)C (some centres not stated) showed for SK-MEL-28 melanoma is > 100 µM

So the reported TGI for `CN=S(=O)(c1ccccc1)c1ccccc1` , on SK-MEL-28 melanoma, turned out to be > 100 µM

Test item `O=C(O)c1cc(=O)c2[nH]c3ccccc3c2s1` ; SK-MEL-28 melanoma; reported TGI was > 100 µM

The reported SK-MEL-28 melanoma TGI of `CCO/N=[N+](\[O-])N(CC)CC` is > 100 µM

---

system: SNB-75 CNS; assay: NCI tumour cell line growth inhibition, 48 h
Decide using TGI: a value greater than or equal to 40 µM is y, a smaller one is n.

Please check the record `CCCCN(Cc1ccc(F)cc1)c1ccc(CO)c(Cl)c1` and state if its TGI is at or above 40 µM.
n

Confirm if TGI reported for the molecule `NCc1ccccc1C1CSCSC1` is 40 µM or above.
y

Record `O=c1[nH]nc(Cc2ccccc2)n1Nc1ccccc1` ; criterion: TGI no lower than 40 µM. Met?
y

Has COc1cc2c(cc1OC)CC(N=[N+]=[N-])c1cc(OC)c(OC)cc1/C=C\2 (stereo unspecified) a recorded TGI greater than or equal to 40 µM?
y

Does the reported TGI for CC(=O)NC1=C(C)C(=O)c2c(nc3n2CCC3O)C1=N (stereo unspecified) fall at or above the 40 µM mark?
y

# bool: TGI of `CN1CN(c2ccccc2)C2(CCN(CCc3csc4ccccc34)CC2)C1=O` >= 40 µM
n

Does `Clc1nc(Cl)c2c(ncn2C/C=C\Cn2cnc3c(Cl)nc(Cl)nc32)n1` have a reported TGI of at least 40 µM?
n

Threshold query (TGI >= 40 µM) on COc1cc(COC(=O)N2CCC2C(=O)O)c([N+](=O)[O-])cc1OC (stereo unspecified)
y

Hi team, for `ClCc1c(Cl)c(Cl)c(Cl)c(CCl)c1Cl` , is the recorded TGI at or above 40 µM?
n

Determine whether this molecule has TGI no lower than 40 µM: `Cc1c(NC(=S)Nc2ccc(Cl)cc2)c(=O)n(-c2ccccc2)n1C`
y

---

system: M14 melanoma; assay: NCI tumour cell line growth inhibition, 48 h
Property: TGI

Bench note, M14 melanoma: entry `CO/N=C(\C)c1ccc(Nc2cc(-c3ccccc3)nc3c(O)cccc23)cc1` , its TGI = 29.6 µM

Considering `COc1ccc(N=C(Nc2ccc(OC)cc2)C(=Nc2ccc(OC)cc2)Nc2ccc(OC)cc2)cc1` , its TGI with M14 melanoma was recorded as > 100 µM

Tested system M14 melanoma; TGI recorded for `c1cc2c(c(-c3c4ccccc4nc4ccccc34)c1)CC1(CC2)OCCO1` was > 100 µM

TGI of `CCOc1cc(NC(C)=O)ccc1C(=O)NN1C(=O)/C(=C/c2cc(OC)c(OC)c(OC)c2)N=C1c1ccccc1` , assay on M14 melanoma, is > 100 µM

For `CC(=O)Nc1ccc2c(c1)oc(=O)c1cc(NC(C)=O)ccc12` on M14 melanoma, measured TGI was > 100 µM

Param item: `COc1ccccc1N1CCN(Cn2c(=O)oc3cccnc32)CC1` ; param system: M14 melanoma; output TGI: > 100 µM

Here COc1ccc(C2S/C(=C\c3ccc(O)cc3)C(=O)N2NC(=O)Cc2ccccc2)cc1 (configuration not stated) was tested on M14 melanoma, and its TGI came to > 100 µM

Observed TGI on M14 melanoma, entry `C=C(C)C(=O)O[C@H]1[C@H]2[C@H](OC(=O)[C@H]2C)[C@H](O)[C@@H](C)[C@@H]2C=CC(=O)[C@]21C` , equals 38.5 µM

Param item: `O=C(CCl)N1c2ccccc2Sc2c1ccc1ccccc21` ; param system: M14 melanoma; output TGI: 3.53 µM

Reading of TGI for `Nc1nc(Cl)cc(Nc2cc(Cl)cc(Cl)c2)n1` with M14 melanoma: 35.4 µM

Hey, M14 melanoma data for COC(=O)C1C2C=CC(C2)N1[C@@H](C)c1ccccc1 (some centres not stated) : TGI came out at > 100 µM

Bench note, M14 melanoma: entry CN(C)CCCN1CCc2c([nH]c3ccccc23)C1c1cccnc1 (configuration not stated) , its TGI = > 100 µM

TGI for M14 melanoma with input `O=NNc1nc(-c2cccnc2)nc2ccccc12` equals > 100 µM

Bench note, M14 melanoma: entry `CC(=O)c1cc([N+](=O)[O-])ccc1OCC(=O)O` , its TGI = > 100 µM

Sample `N/C(=N/n1c(=S)[nH]c2ccccc2c1=O)Nn1c(=S)[nH]c2ccccc2c1=O` , system: M14 melanoma. Its TGI is 23.8 µM

Field TGI (M14 melanoma), entry `c1cnc2[nH]cc(-c3csc(-c4cn(CCCCN5CCOCC5)c5ccccc45)n3)c2c1` : 3.62 µM

The molecule CCC(CCCC[C@@H]1CC[C@H]2CC(=O)C[C@@H]12)OC (some centres not stated) , tested on M14 melanoma, showed TGI of > 100 µM

Item: `Cc1nc2ccccc2c(=O)[nH]1` | System: M14 melanoma | TGI: > 100 µM

TGI on M14 melanoma for `CCO/N=[N+](\[O-])N(CC)CC` is > 100 µM

Observed TGI, M14 melanoma, `Cn1c(-c2cccs2)cc(-c2cccs2)c1-c1ccsc1` : > 100 µM

Test item `Cc1cccc(C(C)C)c1NC(=O)C(=O)CC(=O)c1c(C)n([O-])c2ccccc2[n+]1=O` ; M14 melanoma; reported TGI was 95.3 µM

// assay M14 melanoma, entry COc1ccc(C(C#N)NNc2nc(C)cc(=O)[nH]2)cc1OC (configuration not stated) , TGI value = > 100 µM
